TARGET_OF_ASSAY: human P2X3 receptor (Homo sapiens (Human))
Sequence (P56373 whole entry): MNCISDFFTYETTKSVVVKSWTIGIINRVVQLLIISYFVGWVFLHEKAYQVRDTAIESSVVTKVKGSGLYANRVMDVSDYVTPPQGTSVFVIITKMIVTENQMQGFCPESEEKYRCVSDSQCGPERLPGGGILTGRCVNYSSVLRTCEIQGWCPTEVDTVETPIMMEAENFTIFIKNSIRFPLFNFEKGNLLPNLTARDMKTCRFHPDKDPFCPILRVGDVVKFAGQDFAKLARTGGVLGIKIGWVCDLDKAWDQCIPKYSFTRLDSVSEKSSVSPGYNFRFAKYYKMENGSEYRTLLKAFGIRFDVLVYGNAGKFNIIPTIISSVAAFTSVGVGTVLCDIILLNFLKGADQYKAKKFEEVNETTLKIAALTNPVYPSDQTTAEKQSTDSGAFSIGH
METHOD_SUMMARY: Evaluation of human P2X3 receptor inhibitory activity (Fluo-3 calcium fluorescence, FDSS 3000, ATP stimulation);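 further: stimulus was 50 nM ATP with fluorescence followed for 3 min, and the response per well was peak post-ATP fluorescence divided by the reading at measurement start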
Assay type: cell-based
REPORTED_CONDITIONS: human P2X3 receptor, Test Example 1
pIC50: −log10 of the molar value.
Short version: pIC50 at least 8 is Met, less is Not met.

Could you please find out whether CCCn1c(=O)[nH]/c(=N\c2ccc(Oc3ccc(C#N)nc3)cc2)n(Cc2ccc(Cl)cc2)c1=O [Compound I-2230] has pIC50 that meets 8 or exceeds it?
Met

Could you please find out whether CCCOc1ccc(/N=c2\[nH]c(=O)n(C(C)(C)CC(=O)O)c(=O)n2Cc2ccc(Cl)cc2)cc1 [Compound I-0829] has pIC50 that meets 8 or exceeds it?
Not met

Could you please find out whether COCCn1c(=O)[nH]/c(=N\c2ccc(Oc3ccnc(C(=O)OC)c3)cc2)n(Cc2ccc(Cl)cc2)c1=O [Compound I-2536] has pIC50 that meets 8 or exceeds it?
Met

Could you please find out whether CCn1c(=O)[nH]/c(=N\c2ccc3nc(OCC(=O)O)sc3c2)n(Cc2ccc(Cl)cc2)c1=O [Compound I-2326] has pIC50 that meets 8 or exceeds it?
Not met
